# Target Of Assay: CrPII-CrNAGK (Chlamydomonas reinhardtii)
# Construct: gene CHLRE_01g015000v5; His6-CrNAGK and CrPII with C-terminal Strep tag, mixed equimolar; E. coli expressed; with Nitrogen regulatory protein P-II, chloroplastic (PII signal transducer)
# Sequence (A8HPI1 44-340): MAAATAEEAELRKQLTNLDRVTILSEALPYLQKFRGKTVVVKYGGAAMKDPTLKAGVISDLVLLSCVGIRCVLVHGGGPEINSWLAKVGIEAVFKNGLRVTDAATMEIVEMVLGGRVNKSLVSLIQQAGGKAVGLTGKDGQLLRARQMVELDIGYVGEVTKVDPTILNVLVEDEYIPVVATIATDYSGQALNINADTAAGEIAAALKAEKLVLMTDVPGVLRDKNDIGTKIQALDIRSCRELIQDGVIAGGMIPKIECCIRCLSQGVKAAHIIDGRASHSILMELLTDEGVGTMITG
# Sequence (A0A2K3DLS9 63-205 partner): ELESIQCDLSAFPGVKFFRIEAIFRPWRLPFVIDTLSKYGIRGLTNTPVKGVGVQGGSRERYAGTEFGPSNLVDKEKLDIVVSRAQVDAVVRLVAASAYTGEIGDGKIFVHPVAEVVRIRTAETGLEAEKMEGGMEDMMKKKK
# Assay Remarks: coupled pyruvate kinase / lactate dehydrogenase NADH assay, […] nm
# Type: biochemical
# Applied Conditions: read-out: Arg-IC50
Measure: IC50
In your response, the unit should come after the numeric value.

Exercise: What IC50 appears in the records for this compound with CrPII-CrNAGK (Chlamydomonas reinhardtii)? N=C(N)NCCC[C@H](N)C(=O)O
Key: 250 µM

----------
# Target Of Assay: PpaPII-CrNAGK complex
# Construct: heterologous two-species complex, mixed equimolar: His6-CrNAGK and PpaPII from residue 50 with C-terminal Strep tag; NAGK holds arginine, PII holds glutamine
# Assay Remarks: coupled pyruvate kinase / lactate dehydrogenase NADH assay, […] nm
# Applied Conditions: activation of complex inhibited by 0.12 mM arginine; 50 mM NAG, 5 mM ATP, pH 7.5; Gln site in PII Q-loop, allosteric
Measure: EC50 (µM)
Give the number; µM is assumed, so skip it.

Exercise: Return reported EC50; argument: NC(=O)CC[C@H](N)C(=O)O
Key: 1100

----------
# Target Of Assay: PpaPII-CrNAGK complex
# Construct: gene NAGK; heterologous two-species complex, mixed equimolar: His6-CrNAGK and PpaPII from residue 50 with C-terminal Strep tag; NAGK holds arginine, PII holds glutamine
# Assay Remarks: coupled pyruvate kinase / lactate dehydrogenase NADH assay, […] nm
# Format: biochemical, Chlamydomonas reinhardtii (NAGK); Polytomella parva (PII)
# Applied Conditions: 50 mM NAG, 5 mM ATP, 20 mM MgCl2, pH 7.5; with PpaPII, no Gln; allosteric site of NAGK; unit implied in the sentence
Measure: pIC50
FYI, pIC50 means -log10 of a concentration in mol per litre.

Exercise: Return reported pIC50; argument: N=C(N)NCCC[C@H](N)C(=O)O
Key: 4.15

----------
# Target Of Assay: CrPII-PpaNAGK complex (Polytomella parva, UniProt A0A2K3DLS9+A6XGV3)
# Construct: heterologous two-species complex, mixed equimolar: His6-PpaNAGK from residue 41 and CrPII with C-terminal Strep tag; NAGK holds arginine, PII holds 2-oxoglutarate
# Sequence (A6XGV3 41-329): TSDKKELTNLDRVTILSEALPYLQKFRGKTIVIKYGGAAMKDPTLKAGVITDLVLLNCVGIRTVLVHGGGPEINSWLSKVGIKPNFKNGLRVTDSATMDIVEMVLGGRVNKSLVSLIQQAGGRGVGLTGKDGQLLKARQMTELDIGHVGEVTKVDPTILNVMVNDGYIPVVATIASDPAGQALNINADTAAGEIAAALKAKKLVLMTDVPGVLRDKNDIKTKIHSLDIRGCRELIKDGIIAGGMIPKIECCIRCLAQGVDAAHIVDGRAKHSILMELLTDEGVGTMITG
# Sequence (A0A2K3DLS9 63-205): as the sequence (A0A2K3DLS9 63-205 partner) above
# Assay Remarks: coupled pyruvate kinase / lactate dehydrogenase NADH assay, […] nm
Measure: pIC50
FYI, pIC50 means -log10 of a concentration in mol per litre.

Exercise: Return reported pIC50; argument: N=C(N)NCCC[C@H](N)C(=O)O [arginine]
Key: 3.17
